Below, each entry is listed alongside its reported STK11 functional score.
B1: library; numbered along this chain (parent)
chain: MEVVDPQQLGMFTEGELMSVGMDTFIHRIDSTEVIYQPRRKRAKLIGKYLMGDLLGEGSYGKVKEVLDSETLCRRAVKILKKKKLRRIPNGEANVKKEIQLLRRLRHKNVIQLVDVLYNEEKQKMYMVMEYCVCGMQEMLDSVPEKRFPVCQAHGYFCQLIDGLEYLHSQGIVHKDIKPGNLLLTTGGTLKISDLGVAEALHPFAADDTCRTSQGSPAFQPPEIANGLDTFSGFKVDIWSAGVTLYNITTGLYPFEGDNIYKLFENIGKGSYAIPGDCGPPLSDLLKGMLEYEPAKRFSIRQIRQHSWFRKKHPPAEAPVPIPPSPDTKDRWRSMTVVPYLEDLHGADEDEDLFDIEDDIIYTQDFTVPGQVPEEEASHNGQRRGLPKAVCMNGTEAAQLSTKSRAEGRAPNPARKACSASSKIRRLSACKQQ

Variants of: B1
assay.notes: STK11 functional score (HeLa growth suppression), rescaled enrichment; synonymous median = 1, nonsense median = 0 (normalised score)
setup.conditions: with HeLa; variant type: missense

var | STK11 functional score
V372W | 1.09
A218R | 0.926
S401N | 1.4
M51P | 1.66
D229A | 0.987
E138K | 1.59
K403W | 1.54
E396G | 1.55
M51G | 1.1
K191N | 0.186
D229W | 0.347
G268C | 1.25
I192T | -0.0391
G381H | 1.6
K312P | 1.37
R310L | 1.37
I177L | 0.956
M51K | 1.32
K262P | 1.56
M335A | 1.51
D258L | 0.539
A316G | 1.25
